Test system: Ctenocephalides felis
assayDetails: Ctenocephalides felis oral test
Assay type: in vivo
experimentalConditions: application rate 100 ppm in citrated cattle blood, after 2 days, adult cat fleas
assayReadout: efficacy (kill)
# output: number + unit

Input: Please report efficacy (kill) for the following compound: Cn1c(-c2nc3n(c2S(C)(=O)=O)CCCC3)nc2cc(C(F)(F)C(F)(F)F)ncc21 [Example I-013]
Output: 95%

Input: For the compound CCS(=O)(=O)c1c(-c2nc3cc(C(F)(F)F)cnc3n2C)nc2n1CCCC2 [Example I-011] , give its reported efficacy (kill).
Output: 95%

Input: Using known records, supply efficacy (kill) for CCS(=O)(=O)c1c(-c2nc3cc(C(F)(F)C(F)(F)F)ncc3n2C)nc2n1CCCC2 [Example I-012]
Output: 100%

Input: Provide efficacy (kill) value for the following compound: CCS(=O)(=O)c1c(-c2nc3cc(C(F)(F)F)ncc3n2C)nc2n1CCC(C)C2 (centres unmarked) [Example I-007]
Output: 80%

Input: Entry CCS(=O)(=O)c1c(-c2nc3cc(C(F)(F)F)ncc3n2C)nc2n1CC(C)CC2 (centres unmarked) [Example I-009] needs its efficacy (kill) filled in; supply it.
Output: 80%

---

assayDetails: log P by HPLC on reversed-phase column (EEC Directive 79/831 Annex V.A8), acidic range
Format: physicochemical
experimentalConditions: reversed-phase C18 HPLC column; HPLC reversed-phase C18, 55° C., pH 2.7, 0.1% aqueous formic acid and acetonitrile; read-out: log P (HCOOH)
Doc: threshold 2 (exclusive). Items with chromatographic logP beneath it return t; others return f.

Input: In plain terms, does `CCS(=O)(=O)c1c(-c2nc3cc(C(F)(F)F)nc(C)c3n2C)nc2n1CCCC2` come in under 2 for chromatographic logP?
Output: f

Input: is_below(chromatographic logP, 2) for `CCS(=O)(=O)c1c(-c2nc3cc(C(F)(F)F)nc(C(F)F)c3n2C)nc2n1CCCC2` ?
Output: f

Input: I'd appreciate it if you could check whether `CC1(C)CCn2c(nc(C(=O)O)c2Br)C1` has chromatographic logP smaller than 2.
Output: t

Input: Could you please tell me whether chromatographic logP recorded for CC1CCn2c(nc(C(=O)O)c2Br)C1 (stereo not drawn) is less than 2?
Output: t

Input: Does the reported chromatographic logP of the following molecule sit strictly below 2? `CCS(=O)(=O)c1c(-c2nc3cc(C(F)(F)F)ncc3n2C)nc2n1CCC(C)(C)C2`
Output: f

Input: Given CCS(=O)(=O)c1c(-c2nc3cc(C(F)(F)C(F)(F)F)ncc3n2C)nc2n1CCC(C)C2 (stereo not drawn) , is recorded chromatographic logP strictly lower than 2?
Output: f

Input: Dear colleague, could you confirm whether chromatographic logP of CCS(=O)(=O)c1c(-c2nc3cc(C(F)(F)F)ncc3n2C)nc2n1CCCC2O (stereo not drawn) falls below 2? Thanks.
Output: t

Input: For `CCc1nc(C(F)(F)F)cc2nc(-c3nc4n(c3S(=O)(=O)CC)CCCC4)n(C)c12` , is the recorded chromatographic logP below the cut-off of 2?
Output: f

Input: In plain terms, does `CCSc1c(-c2nc3cc(C(F)(F)F)ncc3n2C)nc2n1CCCC2` come in under 2 for chromatographic logP?
Output: f
